Data origin, for the record: PubChem BioAssay (NCI)

System: NCI-H226 lung
Assay: NCI tumour cell line growth inhibition, 48 h
Reported TGI values for a set of molecules

Below: 3 molecules and their reported TGI.
- MOLECULE: "O=C(O)C1CC(c2ccccc2)=NN1c1ccccc1 (stereo unspecified)"
  OBS_VALUE: "> 100 µM"
- MOLECULE: "COC(=O)Nc1nc2ccccc2c(=O)[nH]1"
  OBS_VALUE: "> 100 µM"
- MOLECULE: "CCOC(=O)c1ccc(N2C(=O)/C(=C\\OC)c3ccccc3C2=O)cc1"
  OBS_VALUE: "> 100 µM"

In: Entry O=S(=O)(c1ccc(I)cc1)N(c1ccccc1)S(=O)(=O)C(F)(F)C(F)(F)C(F)(F)C(F)(F)F : reported TGI = ?
Out: 58 µM

In: Cool, now CCOC(=O)C(=O)Nc1c(N(CC)CC)n2ccccc2nc1=O
Out: > 100 µM

In: Now try O=C(C(Br)Br)C(Br)C(Br)c1ccccc1 (stereo unspecified) .
Out: 15.4 µM

In: Also need Cc1[nH]c(/C=C2\C(=O)Nc3ccc(F)cc32)c(C)c1C(=O)NC[C@H](O)CN1CCOCC1 , thanks.
Out: > 10 µM

In: Could you do the same for O=C(Cc1ccccc1)c1ccc2[nH]c(=O)oc2c1 , please?
Out: 63.2 µM

###

TGI for assorted compounds
System: HCC-2998 colon
Assay: NCI tumour cell line growth inhibition, 48 h
Write the answer as a number in µM, unit excluded.

In: // returns reported TGI for input O=C(NOCC1CC1)c1ccc(F)c(F)c1Nc1ccc(I)cc1Cl
Out: 2.69

In: Param item: Cc1cc2c(F)c(Oc3ncnn4cc(OC[C@@H](C)OC(=O)[C@H](C)N)c(C)c34)ccc2[nH]1
Out: 27.6

###

Tested on: CAKI-1 renal
Test: NCI tumour cell line growth inhibition, 48 h
Catalogue of TGI values

In: Given the entry CC(C)CC1c2[nH]c3ccccc3c2C[C@H]2C(=O)NC(CCC(=O)OC(C)(C)C)C(=O)N12 (some centres undefined) , report its measured TGI.
Out: > 100 µM

In: Same question, C=C1C(=O)OC2CC3(CO3)C3C(O)C(O)CC3(C)CC12 (centres undefined) this time
Out: 36.6 µM

In: Cool, now COC(=O)[C@H](Cc1ccccc1)NC(=O)N1CCN(C(=O)N[C@@H](Cc2ccccc2)C(=O)OC)CCN(C(=O)N[C@@H](Cc2ccccc2)C(=O)OC)CC1
Out: > 100 µM

In: Try O=C(c1ccncc1)n1nc(-c2ccccc2)c(N=Nc2ccc([N+](=O)[O-])cc2)c1-c1ccccc1 next.
Out: > 100 µM

In: Another: O=c1cc(-c2cccc(OC(F)(F)F)c2)[nH]c2cc3c(cc12)OCO3
Out: > 100 µM

In: Another compound to check: CCCNC(=S)/N=C\c1c(O)c2ccccc2oc1=O
Out: > 100 µM

In: Moving on to Cc1ccc2c(=O)c3cccc(CC(=O)O)c3oc2c1C
Out: > 100 µM

In: And what about the compound CC(C(=O)Oc1ccc2ccccc2c1-c1c(O)ccc2ccccc12)c1ccccc1 (centres undefined) ?
Out: 24 µM

In: Field entry: CC(C)(O)C1OCC(C2CCC3(C)C4=CCC5C(C)(C)C(O)CCC5(C)C4CCC23C)CC1O (centres undefined)
Out: 29.4 µM

###

Test system: LOX IMVI melanoma
Experiment: NCI tumour cell line growth inhibition, 48 h; in the data active means GI50 below about 0.43 µM; inactive means the rest
Form entry, call: pick from active, inactive

Examples from the recorded data:
- COMPOUND: "O=C1CCC2(C=C(Br)C(=O)C(Br)=C2)O1"
  LABEL: "inactive"
- COMPOUND: "CC1=Cc2cc3[n-]c(cc4nc(cc5[n-]c(cc1n2)cc5C)C(C)=C4CCC(=O)O)c(CCC(=O)O)c3C.[Pd+2]"
  LABEL: "inactive"
- COMPOUND: "N=C(N)CCCCCCCCC(=N)N"
  LABEL: "inactive"
- COMPOUND: "COc1ccc(-c2nc(-c3cn(C)c4ncccc34)cs2)cc1"
  LABEL: "inactive"

In: Per the assay record, what outcome was assigned to Cc1cc(S(=O)(=O)Nc2nnc(-c3ccccc3)c(-c3ccccc3)n2)c(SCc2ccccc2)cc1Cl ?
Out: inactive

In: Check O=C(Oc1ccc(CCl)cc1)c1ccccc1 too.
Out: active

In: Similarly, N.N.NC(CS)C(=O)[O-].NC(CS)C(=O)[O-].[Pt+4] (configuration not stated) ?
Out: inactive

###

Tested on: MDA-MB-231 breast
Assay: NCI tumour cell line growth inhibition, 48 h
ASSAY_METRIC: GI50

Below, 3 compounds whose answers are already recorded.
- COMPOUND: "Cc1ccc2c(N)c(C(=O)N[C@H]3CCc4cc(N5CC6CCC(C5)N6)ccc4C3)sc2n1"
  TARGET_ENTITY: "MDA-MB-231 breast"
  GI50: "0.606 µM"
- COMPOUND: "CC(NNC(=S)N1CCCCCC1)c1ccc2ccccc2n1 (stereo not given)"
  TARGET_ENTITY: "MDA-MB-231 breast"
  GI50: "2.03 µM"
- COMPOUND: "O=[N+]([O-])/C=C/c1c[nH]c2ccccc12"
  TARGET_ENTITY: "MDA-MB-231 breast"
  GI50: "15.2 µM"

In: // fetch MDA-MB-231 breast GI50 for CCN(CC)CCCCCCCNc1c2ccc(Cl)cc2nc2ccc(OC)cc12
Out: 1.48 µM

In: And for Fc1ccc(-c2ccc(-c3nnc(-c4cc(F)c(Cl)cc4Cl)o3)o2)cc1Cl ?
Out: 29.7 µM

In: Now the same for COc1ccc(-c2nc(-c3cn(C)c4ncccc34)cs2)cc1
Out: 75.3 µM

In: Check O=C1CCC2(C=C(Br)C(=O)C(Br)=C2)O1 too.
Out: 15.4 µM

In: Entry to check: CCOC(=O)Oc1c(OC)cc(C(=O)O[C@@H]2C[C@@H]3CN4CCc5c([nH]c6cc(OC)ccc56)[C@H]4C[C@@H]3[C@H](C(=O)OC)[C@H]2OC)cc1OC
Out: 2.56 µM

In: Another compound to look at: C=C(CN1CCc2ccccc2C1)c1ccc(C(=O)Nc2ccc(N)cc2)cc1
Out: 20.5 µM

In: // next record COc1nc(C)cc2c(=O)n(-c3ccccc3)n(CCCN3CCN(c4ccc(Cl)cc4)CC3)c(=O)c12
Out: 39.5 µM

###

Listed here are molecules together with their documented TGI.
System: NCI/ADR-RES ovarian
Experiment: NCI tumour cell line growth inhibition, 48 h
Just the number please, in µM, no unit attached.

- MOLECULE: "O=S1(=O)CCN(Cc2ccccc2)/C1=N\\S(=O)(=O)c1ccc(Cl)cc1"
  RESULT_UNIT: "µM"
  TGI: 35.8
- MOLECULE: "COc1cc(-c2coc3c(OC)c(OC4OC(CO)C(O)C(O)C4O)c(OC)cc3c2=O)cc(OC)c1C (stereo not given)"
  RESULT_UNIT: "µM"
  TGI: 27.4
- MOLECULE: "CN(C)CCO/N=C1/C=C2CC[C@H]3[C@@H]4CC[C@H](O)[C@@]4(C)CC[C@@H]3[C@@]2(C)CC1"
  RESULT_UNIT: "µM"
  TGI: 17.1
- MOLECULE: "C=C1C(=O)OC2C1C(OC(=O)/C(C)=C/C)CC1(C)C(=O)CCC(=C)C21 (stereo not given)"
  RESULT_UNIT: "µM"
  TGI: 33.8
- MOLECULE: "C[C@]12CC(c3ccccc3O1)C(C(=O)NC13CC4CC(CC(C4)C1)C3)C(=O)N2 (stereo not given in full)"
  RESULT_UNIT: "µM"
  TGI: 55.6

Alright, here's another molecule for you.
In: Kindly state the measured TGI obtained for Cc1cc2c(s1)C(=O)c1sccc1C2=O with NCI/ADR-RES ovarian.
Out: 1.64

###

System: K-562 leukemia
Assay: NCI tumour cell line growth inhibition, 48 h
Overview of recorded TGI for various molecules

- MOLECULE: "CC(=O)c1ccc2c(c1)oc(=O)n2CCN1CCCCC1"
  TGI: "> 100 µM"

In: Name the recorded TGI for OC1CC(O)c2c(Cl)sc(Cl)c21 (stereo unspecified) .
Out: > 100 µM

In: Item: Cc1ccc(S(=O)(=O)NNC(=S)Nc2cccc3ccccc23)cc1
Out: > 100 µM

###

System: CAKI-1 renal
Assay: NCI tumour cell line growth inhibition, 48 h
ASSAY_METRIC: TGI

- MOLECULE: "C[Si](C)(C)OC1c2[nH]c3ccccc3c2CN2C(=O)CCC12 (stereo not given)"
  TGI: "> 100 µM"
- MOLECULE: "O=C(c1ccccc1)c1c(C(=O)c2ccccc2)c(-c2ccccc2)c2c(-c3ccccc3)sc(-c3ccccc3)c2c1-c1ccccc1"
  TGI: "> 100 µM"
- MOLECULE: "CC(C)(C)N1NC1C1NN1C(C)(C)C (stereo not given)"
  TGI: "> 100 µM"
- MOLECULE: "CCOC(=O)C1C(=O)c2ccccc2CN1Cc1ccccc1 (stereo not given)"
  TGI: "> 100 µM"

Field: next molecule
In: TGI for O=S(=O)(c1ccc(I)cc1)N(c1ccccc1)S(=O)(=O)C(F)(F)C(F)(F)C(F)(F)C(F)(F)F ?
Out: 98.2 µM
